Reference source for all entries: the supplement of paper PMC6757056

B1: library; a variant is named by its letters at N, in order (parent)
chain: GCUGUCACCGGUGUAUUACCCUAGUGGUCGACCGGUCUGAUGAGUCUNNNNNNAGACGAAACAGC

- Variants of: B1
- measurement_description: normalized RNA/DNA level with ligand (relative to sTRSVctl = 100) (log10 (% of sTRSVctl)); ligand: hypoxanthine (xanthine aptamer); higher = less ribozyme self-cleavage, higher mRNA level
- measurement_parameters: ligand concentration (+) RNA-Seq: 5 mM, HEK293T, reporter: mCherry (pCS4076), ligand present: yes
# normalized RNA/DNA level with ligand (log10) annotations
API note: the answer field is a bare number with no unit suffix.

Reference set, count: 8
[[record]]
variant_identifier = "AACAUU"
number = 1.91

[[record]]
variant_identifier = "CCCGAA"
number = 1.9

[[record]]
variant_identifier = "UGAAAA"
number = 1.92

[[record]]
variant_identifier = "CAACGA"
number = 1.95

[[record]]
variant_identifier = "UCAGUA"
number = 1.92

[[record]]
variant_identifier = "GUGCUU"
number = 1.96

[[record]]
variant_identifier = "CUCCAA"
number = 1.91

[[record]]
variant_identifier = "UAACCC"
number = 1.94


For the variant GUUCUG , report normalized RNA/DNA level with ligand (log10).
1.89

For the variant UUUAAA , report normalized RNA/DNA level with ligand (log10).
1.94

For the variant AGGAAU , report normalized RNA/DNA level with ligand (log10).
1.91
